- measured target: KRAS G13D (Homo sapiens, UniProt P01116+P62937, G13D)
- Sequence (P01116 1-169 isoform P01116-2 G13D limits assumed): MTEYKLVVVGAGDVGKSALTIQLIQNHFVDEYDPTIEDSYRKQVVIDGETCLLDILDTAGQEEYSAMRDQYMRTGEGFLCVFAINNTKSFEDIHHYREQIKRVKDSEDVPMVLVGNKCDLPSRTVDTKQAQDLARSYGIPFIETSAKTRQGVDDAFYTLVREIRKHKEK
- Sequence (P62937 whole entry): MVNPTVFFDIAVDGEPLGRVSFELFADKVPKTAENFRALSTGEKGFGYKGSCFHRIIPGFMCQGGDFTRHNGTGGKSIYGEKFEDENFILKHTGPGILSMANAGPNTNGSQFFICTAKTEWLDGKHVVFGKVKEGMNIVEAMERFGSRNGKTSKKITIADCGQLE
- experimental protocol: Disruption of BRAF RBD interaction with Ras (FRET / MOA assay, with Cyclophilin A)
- Assay type: biochemical
- study conditions: KRAS G13D FRET data IC50, KRAS G13D
- Text: This protocol may also be executed substituting other Ras proteins or nucleotides. The purpose of this biochemical assay was to measure the ability of test compounds to facilitate ternary complex formation between a nucleotide-loaded K-Ras isoform and Cyclophilin A; the resulting ternary complex disrupts binding to a BRAF^RBD construct, inhibiting K-Ras signaling through a RAF effector. Data is reported as IC50 values. […]
pIC50: −log10 of the molar value.
Recorded pIC50, one value per entry.

Example cases with answers are listed next.
{"molecule": "CCn1c(-c2cnccc2COC)c2c3cc(ccc31)-c1cc(O)cc(c1)C[C@H](NC(=O)[C@H](C(C)C)N(C)C(=O)[C@H]1CCN(S(C)(=O)=O)C1)C(=O)N1CCC[C@H](N1)C(=O)OCC(C)(C)C2 [Example A24]", "recorded value": "6.00 to 7.00"}
{"molecule": "C=CC(=O)N1CC[C@H](C(=O)N(C)[C@H](C(=O)N[C@H]2C[C@H]3CN(CCO3)c3ccc4c(c3)c(c(-c3cccnc3[C@H](C)OC)n4CC)CC(C)(C)COC(=O)[C@@H]3CCCN(N3)C2=O)C(C)C)C1 (racemic) [Example A507]", "recorded value": "< 5.00"}
{"molecule": "C=CC(=O)N1CC[C@H](C(=O)N(C)[C@H](C(=O)N[C@H]2Cc3cccc(c3)-c3ccc4c(c3)c(c(-c3cccnc3[C@H](C)OC)n4CC)CC(C)(C)COC(=O)[C@@H]3CCCN(O3)C2=O)C(C)C)C1 [Example A284]", "recorded value": "< 5.00"}

Please find the next molecule below.
Exercise: # value lookup — system KRAS G13D (Homo sapiens, UniProt P01116+P62937, G13D), readout pIC50, item CCn1c(-c2cccnc2[C@H](C)OC)c2c3cc(ccc31)-c1csc(n1)C[C@H](NC(=O)[C@H](C(C)C)N(C)C(=O)N1CCC(N(C)C)CC1)C(=O)N1CCC[C@H](N1)C(=O)OCC(C)(C)C2 (atropisomer, axis not shown) [Example A571]
Solution: 6.00 to 7.00
